Below are IC50 values recorded for c-Kit kinase (Homo sapiens).

Here's what some known entries look like.
# compound-structure, system, IC50
records = [
    ("O=C(c1ccc(NC2CCC(F)(F)CC2)nc1Cl)c1c[nH]c2ncnc(NC3CC3)c12", "c-Kit kinase (Homo sapiens)", "< 1000 nM"),
    ("Cc1cnc2[nH]cc(Cc3cnc(Nc4cc(C5CC5)n[nH]4)nc3)c2c1", "c-Kit kinase (Homo sapiens)", "< 1000 nM"),
    ("CCc1ccc(Nc2ccc(C(=O)c3c[nH]c4ncnc(Nc5ccc(C)nc5)c34)c(F)n2)cn1", "c-Kit kinase (Homo sapiens)", "< 1000 nM"),
    ("CCc1ccc(Nc2ccc(C(=O)c3c[nH]c4ncc(C)cc34)c(F)n2)cn1", "c-Kit kinase (Homo sapiens)", "< 100 nM"),
    ("CCOc1ccc(Nc2ccc(Cc3c[nH]c4ncnc(C)c34)c(F)n2)cn1", "c-Kit kinase (Homo sapiens)", "< 100 nM"),
    ("CCn1ccc(Nc2ncc(Cc3c[nH]c4ncc(C)cc34)cn2)n1", "c-Kit kinase (Homo sapiens)", "< 100 nM"),
]

Record COc1ncnc2[nH]cc(Cc3ccc(Nc4ccc(Cl)nc4)nc3F)c12 / c-Kit kinase (Homo sapiens), IC50 recorded as < 1000 nM

The recorded IC50 with c-Kit kinase (Homo sapiens) for Cc1ccc(Nc2ccc(C(=O)c3c[nH]c4ncnc(NCC5CC5)c34)c(F)n2)cn1 was < 100 nM
